method.summary: Cell Proliferation Assay against the TMD8 Cell Line (AID 651645);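 also: cells exposed to compound for 48 h before reading; 100% = DMSO and 0% = 9.2 µM bortezomib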
settings: TMD8 DLBCL cell line proliferation/viability; at 46.1 µM (top of the series) unless noted
*1 amine or outer side, *2 acyl side, *3 side chain or, on linkers, in order; H or OH if unused. Where a SMILES comes first, the peptide text is derived from it. Bridges are numbered along the chain shown (N, C = ends). Roman numbers before positions name the chains, in order. [ ]: non-standard residue; d: D form. ξ: configuration not given here. Actinocin(9to1) = Cc1c2oc3c(C)ccc(C(=O)[*:1])c3nc-2c(C(=O)[*:2])c(N)c1=O; ξNMeV = CNC(C(=O)O)C(C)C; ξV = CC(C)C(N)C(=O)O; Sar = CNCC(=O)O
A collection of compounds and their measured viability (% of control)
# output: bare number, implied unit %

Which viability (% of control) is listed for Cc1c2oc3c(C)ccc(C(=O)N[C@@H]4C(=O)NC(C(C)C)C(=O)N5CCC[C@H]5C(=O)N(C)CC(=O)N(C)C(C(C)C)C(=O)O[C@@H]4C)c3nc-2c(C(=O)N[C@@H]2C(=O)NC(C(C)C)C(=O)N3CCC[C@H]3C(=O)N(C)CC(=O)N(C)C(C(C)C)C(=O)O[C@@H]2C)c(N)c1=O (stereo partly drawn) (I: T[ξV]P[Sar][ξNMeV] / II: T[ξV]P[Sar][ξNMeV]; ester I:1-I:C, II:1-II:C; linker I:N-II:N via Actinocin(9to1)) ? 3.49

Try CN(NC(=O)CC(=O)NN(C)C(=S)c1ccccc1)C(=S)c1ccccc1 next. 81.1

// query: O=C(O)CC/C=C\CC[C@H]1[C@@H](N2CCCCC2)[C@@H](O)C[C@@H]1OCc1ccc(-c2ccccc2)cc1 104
